target: B-Raf (Homo sapiens, UniProt P15056); test: Luciferase-coupled chemiluminescence kinase assay (ATP consumption), B-Raf; type: biochemical; conditions: read-out: bRaf IC50
Sequence (P15056 whole entry): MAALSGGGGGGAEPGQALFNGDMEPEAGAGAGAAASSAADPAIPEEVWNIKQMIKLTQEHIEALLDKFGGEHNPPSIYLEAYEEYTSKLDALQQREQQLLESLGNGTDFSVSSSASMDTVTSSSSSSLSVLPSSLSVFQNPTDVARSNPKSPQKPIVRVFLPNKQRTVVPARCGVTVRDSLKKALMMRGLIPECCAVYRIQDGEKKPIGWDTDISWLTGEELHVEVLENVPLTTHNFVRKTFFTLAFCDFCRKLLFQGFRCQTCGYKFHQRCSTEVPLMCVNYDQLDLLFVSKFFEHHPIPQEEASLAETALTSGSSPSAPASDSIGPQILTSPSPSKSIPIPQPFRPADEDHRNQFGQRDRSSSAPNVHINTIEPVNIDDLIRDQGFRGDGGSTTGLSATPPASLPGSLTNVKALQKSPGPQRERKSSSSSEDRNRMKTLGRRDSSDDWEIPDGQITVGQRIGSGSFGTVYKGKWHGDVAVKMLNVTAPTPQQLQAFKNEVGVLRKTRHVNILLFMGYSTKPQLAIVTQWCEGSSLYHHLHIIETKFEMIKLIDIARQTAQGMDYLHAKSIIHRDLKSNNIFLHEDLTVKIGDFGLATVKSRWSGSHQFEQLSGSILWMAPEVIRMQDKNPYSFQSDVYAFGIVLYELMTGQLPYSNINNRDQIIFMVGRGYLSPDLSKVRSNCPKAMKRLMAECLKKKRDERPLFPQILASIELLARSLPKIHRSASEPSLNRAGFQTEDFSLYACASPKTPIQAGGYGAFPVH
In this section, each of the compounds is paired with its reported IC50.
MEASURED_QUANTITY: IC50

>  <COMPOUND>
O=C(Nc1nc2cc(C3(O)c4ccccc4C(=O)N3Cc3ccccc3)ccc2[nH]1)N1CCCCC1 (centres unmarked) [Entry 213]

>  <MEASURED_QUANTITY>
IC50

>  <VAL>
1000 to 10000 nM

$$$$
>  <COMPOUND>
CC(C)(COCc1ccccc1)COC(=O)Nc1nc2cc(C3(O)c4ccccc4C(=O)N3Cc3ccccc3)ccc2[nH]1 (centres unmarked) [Entry 223]

>  <MEASURED_QUANTITY>
IC50

>  <VAL>
100 to 1000 nM

$$$$
>  <COMPOUND>
Cc1ccc(Cl)cc1N1C(=O)c2ccccc2C1(O)c1ccc2c(c1)NC(=O)CO2 (centres unmarked) [Entry 74]

>  <MEASURED_QUANTITY>
IC50

>  <VAL>
< 100 nM

$$$$
>  <COMPOUND>
COC(=O)Nc1nc2ccc(C3(O)c4ccccc4C(=O)N3Cc3cccc(Br)c3)cc2[nH]1 (centres unmarked) [Entry 120]

>  <MEASURED_QUANTITY>
IC50

>  <VAL>
< 100 nM

$$$$
>  <COMPOUND>
O=C1COc2ccc(C3(O)c4ccccc4C(=O)N3Cc3cccc(C(F)(F)F)c3)cc2N1 (centres unmarked) [Entry 53]

>  <MEASURED_QUANTITY>
IC50

>  <VAL>
≥ 10000 nM

$$$$
>  <COMPOUND>
O=C(Nc1nc2cc(C3(O)c4ccccc4C(=O)N3Cc3ccccc3)ccc2[nH]1)OCCF (centres unmarked) [Entry 126]

>  <MEASURED_QUANTITY>
IC50

>  <VAL>
< 100 nM

$$$$
>  <COMPOUND>
COC(=O)Nc1nc2cc(C3(O)c4ccccc4C(=O)N3Cc3ccccc3OC)ccc2[nH]1 (centres unmarked) [Entry 116]

>  <MEASURED_QUANTITY>
IC50

>  <VAL>
1000 to 10000 nM

$$$$
>  <COMPOUND>
CCc1cc(N2C(=O)c3ccccc3C2(O)c2ccc3[nH]c(NC(=O)OC)nc3c2)ccc1F (centres unmarked) [Entry 238]

>  <MEASURED_QUANTITY>
IC50

>  <VAL>
< 100 nM

$$$$

====

biological target: B-Raf (Homo sapiens, UniProt P15056); experiment: Luciferase-coupled chemiluminescence kinase assay (ATP consumption), B-Raf; format: biochemical; conditions: read-out: bRaf IC50
pIC50: −log10 of the molar value.
In this section, each of the molecules is paired with its reported pIC50.
MEASURED_QUANTITY: pIC50

>  <MOLECULE>
CC1(C)OC[C@@H](COC(=O)Nc2nc3cc(C4(O)c5ccccc5C(=O)N4Cc4ccccc4)ccc3[nH]2)O1 (stereo partly shown) [Entry 229]

>  <MEASURED_QUANTITY>
pIC50

>  <VAL>
> 7.00

$$$$
>  <MOLECULE>
CC(C)C(=O)Nc1nc2ccc(C3(O)c4ccccc4C(=O)N3Cc3ccccc3)cc2[nH]1 (stereo not shown) [Entry 240]

>  <MEASURED_QUANTITY>
pIC50

>  <VAL>
6.00 to 7.00

$$$$
>  <MOLECULE>
COC(=O)Nc1nc2cc(C3(O)c4ccccc4C(=O)N3c3ccccc3OC(F)(F)F)ccc2[nH]1 (stereo not shown) [Entry 183]

>  <MEASURED_QUANTITY>
pIC50

>  <VAL>
> 7.00

$$$$
>  <MOLECULE>
COC(=O)Nc1nc2cc(C3(O)c4ccccc4C(=O)N3c3cccc(I)c3)ccc2[nH]1 (stereo not shown) [Entry 203]

>  <MEASURED_QUANTITY>
pIC50

>  <VAL>
> 7.00

$$$$

====

molecular target: c-Raf (Homo sapiens); experiment: Luciferase-coupled chemiluminescence kinase assay (ATP consumption), c-Raf; assay type: biochemical; conditions: read-out: cRaf-1 (inhibition indicated as IC50)
pIC50: −log10 of the molar value.
MEASURED_QUANTITY: pIC50

>  <MOLECULE>
O=C(CCCN1CCCCC1)Nc1nc2cc(C3(O)c4ccccc4C(=O)N3c3cccc(Cl)c3F)ccc2[nH]1 (stereo not shown)

>  <VAL>
> 7.00

$$$$
>  <MOLECULE>
COC(=O)Nc1nc2cc(C3(O)c4ccccc4C(=O)N3CC3CCNC3)ccc2[nH]1 (stereo not shown)

>  <VAL>
5.00 to 6.00

$$$$
>  <MOLECULE>
C=Cc1cccc(NC(=O)c2ccccc2C(=O)c2ccc3nc(NC(=O)OC)[nH]c3c2)c1

>  <VAL>
> 7.00

$$$$
>  <MOLECULE>
COC(=O)Nc1nc2cc(C3(O)c4ccccc4C(=O)N3c3cc(Cl)ccc3OC)ccc2[nH]1 (stereo not shown)

>  <VAL>
> 7.00

$$$$
>  <MOLECULE>
COC(=O)Nc1nc2cc(C3(O)c4ccccc4C(=O)N3c3cc(Cl)ccc3C)ccc2[nH]1 (stereo not shown)

>  <VAL>
> 7.00

$$$$
>  <MOLECULE>
COC(=O)Nc1nc2cc(C3(O)c4ccccc4C(=O)N3c3cc(C)ccc3C)ccc2[nH]1 (stereo not shown)

>  <VAL>
> 7.00

$$$$
>  <MOLECULE>
CC#Cc1cccc(N2C(=O)c3ccccc3C2(O)c2ccc3[nH]c(NC(=O)OC)nc3c2)c1F (stereo not shown)

>  <VAL>
6.00 to 7.00

$$$$
>  <MOLECULE>
O=C1c2ccccc2C(O)(c2ccc3[nH]c(Nc4ccccc4)nc3c2)N1c1cccc(Cl)c1F (stereo not shown)

>  <VAL>
5.00 to 6.00

$$$$
>  <MOLECULE>
COC(=O)Nc1nc2cc(C3(O)c4ccccc4C(=O)N3c3cccc(N4CCOCC4)c3)ccc2[nH]1 (stereo not shown)

>  <VAL>
5.00 to 6.00

$$$$
>  <MOLECULE>
O=C(Nc1nc2ccc(C3c4ccccc4C(=O)N3c3cccc(Br)c3)cc2[nH]1)OCCN1CCCCC1 (stereo not shown)

>  <VAL>
> 7.00

$$$$
>  <MOLECULE>
COC(=O)Nc1nc2ccc(C3(O)c4c(F)ccc(F)c4C(=O)N3c3cccc(Br)c3)cc2[nH]1 (stereo not shown)

>  <VAL>
> 7.00

$$$$
>  <MOLECULE>
O=C1c2ccccc2C(O)(c2ccc3[nH]c(Nc4ccc(Cl)nn4)nc3c2)N1c1cccc(Cl)c1F (stereo not shown)

>  <VAL>
6.00 to 7.00

$$$$
>  <MOLECULE>
COC(=O)Nc1nc2ccc(C(=O)c3ccccc3C(=O)Nc3cc(Cl)ccc3F)cc2[nH]1

>  <VAL>
> 7.00

$$$$
>  <MOLECULE>
O=C(Nc1nc2ccc(C3(O)c4ccccc4C(=O)N3c3cccc(Cl)c3F)cc2[nH]1)OC1CCC1 (stereo not shown)

>  <VAL>
> 7.00

$$$$
>  <MOLECULE>
COC(=O)Nc1nc2ccc(C3(C)c4ccccc4C(=O)N3c3cccc(Br)c3)cc2[nH]1 (stereo not shown)

>  <VAL>
> 7.00

$$$$
>  <MOLECULE>
COCCOC(=O)Nc1nc2cc(C3(O)c4ccccc4C(=O)N3c3cccc(Cl)c3F)ccc2[nH]1 (stereo not shown)

>  <VAL>
> 7.00

$$$$

====

In this section, each of the compounds is paired with its reported IC50.
biological target: c-Raf (Homo sapiens, UniProt P04049); assay: Luciferase-coupled chemiluminescence kinase assay (ATP consumption), c-Raf; format: biochemical; details: read-out: cRaf-1 (inhibition indicated as IC50)
Sequence (P04049 whole entry): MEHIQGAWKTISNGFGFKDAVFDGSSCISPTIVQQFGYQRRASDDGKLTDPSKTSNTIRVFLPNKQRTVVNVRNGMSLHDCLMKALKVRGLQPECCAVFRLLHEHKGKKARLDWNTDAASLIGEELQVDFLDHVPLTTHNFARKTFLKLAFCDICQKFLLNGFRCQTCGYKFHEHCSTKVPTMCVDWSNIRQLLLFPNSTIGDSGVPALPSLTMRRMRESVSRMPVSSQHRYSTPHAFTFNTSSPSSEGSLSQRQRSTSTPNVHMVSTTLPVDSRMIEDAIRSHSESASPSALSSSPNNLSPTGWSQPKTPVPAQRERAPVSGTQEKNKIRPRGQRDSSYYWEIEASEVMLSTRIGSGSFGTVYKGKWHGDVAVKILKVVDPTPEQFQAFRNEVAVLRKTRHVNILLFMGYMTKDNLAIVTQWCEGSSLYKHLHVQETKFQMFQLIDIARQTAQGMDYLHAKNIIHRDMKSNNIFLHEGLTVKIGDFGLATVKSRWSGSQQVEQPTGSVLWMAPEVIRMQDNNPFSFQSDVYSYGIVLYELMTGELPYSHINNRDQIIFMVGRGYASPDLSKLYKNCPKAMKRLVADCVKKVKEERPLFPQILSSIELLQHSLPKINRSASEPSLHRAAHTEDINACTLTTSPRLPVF
MEASURED_QUANTITY: IC50

>  <COMPOUND>
COC(=O)Nc1nc2ccc(C(=O)c3ccccc3C(=O)Nc3ccc(F)c(Cl)c3)cc2[nH]1

>  <VAL>
< 100 nM

$$$$
>  <COMPOUND>
COC(=O)Nc1nc2cc(C3(O)c4ccccc4C(=O)N3S(=O)(=O)c3ccccc3)ccc2[nH]1 (stereo not shown)

>  <VAL>
1000 to 10000 nM

$$$$
>  <COMPOUND>
COC(=O)Nc1nc2ccc(C(=O)c3ccccc3C(=O)Nc3cc(Br)c(F)cc3F)cc2[nH]1

>  <VAL>
< 100 nM

$$$$
>  <COMPOUND>
COC(=O)Nc1nc2cc(C3(O)c4ccccc4C(=O)N3c3cccc(N4CCCC4)c3)ccc2[nH]1 (stereo not shown)

>  <VAL>
1000 to 10000 nM

$$$$
>  <COMPOUND>
COC(=O)Nc1nc2ccc(C(=O)c3ccccc3C(=O)Nc3cc(Cl)c(F)cc3F)cc2[nH]1

>  <VAL>
< 100 nM

$$$$
>  <COMPOUND>
COC(=O)Nc1nc2cc(C(=O)c3ccccc3NC(=O)Nc3ccccc3)ccc2[nH]1

>  <VAL>
100 to 1000 nM

$$$$
>  <COMPOUND>
O=C1c2ccccc2C(O)(c2ccc3[nH]c(Nc4cnccn4)nc3c2)N1c1cccc(Cl)c1F (stereo not shown)

>  <VAL>
< 100 nM

$$$$
>  <COMPOUND>
CC(=O)N1CCC(C(=O)Nc2nc3cc(C4(O)c5ccccc5C(=O)N4c4cccc(Cl)c4F)ccc3[nH]2)CC1 (stereo not shown)

>  <VAL>
< 100 nM

$$$$
>  <COMPOUND>
COC(=O)Nc1nc2cc(C3(O)c4ccccc4C(=O)N3c3cc(F)cc(Br)c3F)ccc2[nH]1 (stereo not shown)

>  <VAL>
< 100 nM

$$$$
>  <COMPOUND>
O=C(Nc1nc2ccc(C3(O)c4ccccc4C(=O)N3c3cccc(Cl)c3F)cc2[nH]1)C1CC1(F)F (stereo not shown)

>  <VAL>
< 100 nM

$$$$
